The values you see were collected from ChEMBL document CHEMBL1255246.

- measurement.notes: Oral bioavailability in human at 200 mg three times a day for 3 days
- Format: ADME, organism-based
- measurement.context: in vivo
assay.metric: bioavailability

Prompt line: Consider the molecule `CO[C@H]1/C=C/O[C@@]2(C)Oc3c(C)c(O)c4c(O)c(c5c(nc6cc(C)ccn65)c4c3C2=O)NC(=O)/C(C)=C\C=C\[C@H](C)[C@H](O)[C@@H](C)[C@@H](O)[C@@H](C)[C@H](OC(C)=O)[C@@H]1C` and give its measured bioavailability.
Response line: < 0.4%

====

- measurement.notes: Cmax in Shigella flexneri challenged human at […], po administered every 8 hrs for three days measured after last dose
- Type: ADME, organism-based
- Set-up: route oral
- measurement.context: in vivo
assay.metric: Cmax
Please answer in the form of a number followed by its unit of measurement.

Prompt line: Consider the compound CO[C@H]1/C=C/O[C@@]2(C)Oc3c(C)c(O)c4c(O)c(c5c(nc6cc(C)ccn65)c4c3C2=O)NC(=O)/C(C)=C\C=C\[C@H](C)[C@H](O)[C@@H](C)[C@@H](O)[C@@H](C)[C@H](OC(C)=O)[C@@H]1C [RIFAXIMIN] and give its measured Cmax.
Response line: 1.23 ng/mL

====

- measurement.notes: Cmax in Shigella flexneri challenged human at […], po administered every 8 hrs for three days measured after third dose
- Format: ADME, organism-based
- Parameters: route oral
- measurement.context: in vivo
assay.metric: Cmax (ng/mL)
Quick note: give the figure in ng/mL, leave out the unit.

Prompt line: Consider the compound `CO[C@H]1/C=C/O[C@@]2(C)Oc3c(C)c(O)c4c(O)c(c5c(nc6cc(C)ccn65)c4c3C2=O)NC(=O)/C(C)=C\C=C\[C@H](C)[C@H](O)[C@@H](C)[C@@H](O)[C@@H](C)[C@H](OC(C)=O)[C@@H]1C` and give its measured Cmax.
Response line: 1.63
